# System: Toledo Cells
# experiment-notes: FACS-based phagocytosis assay, macrophages cocultured with Toledo cells
# Format: cell-based, Human
# assay-setup: Cpd 0.008 uM, T4J = 0, R = 0
measured-attribute: macrophage phagocytosis (untreated = 1.00)
Quick one: just the number, no unit, thanks!

| molecule | measured-on | meas-value |
| --- | --- | --- |
| Cn1c(CCCC(=O)O)nc2cc(N(CCCl)CCCl)ccc21 | Toledo Cells | 1.00 |

### Prompt // returns reported macrophage phagocytosis (untreated = 1.00) for input "Nc1ncn([C@@H]2O[C@H](CO)[C@@H](O)[C@H]2O)c(=O)n1"
### Response 1.07

### Prompt // returns reported macrophage phagocytosis (untreated = 1.00) for input Nc1cccc2c1CN(C1CCC(=O)NC1=O)C2=O (stereo not shown) [Lenalidomide]
### Response 1.03

### Prompt // returns reported macrophage phagocytosis (untreated = 1.00) for input "CC1(C)CCC(CN2CCN(c3ccc(C(=O)NS(=O)(=O)c4ccc(NCC5CCOCC5)c([N+](=O)[O-])c4)c(Oc4cnc5[nH]ccc5c4)c3)CC2)=C(c2ccc(Cl)cc2)C1"
### Response 1.10

====

# Tested on: Toledo Cells
# experiment-notes: FACS-based phagocytosis assay, macrophages cocultured with Toledo cells
# Format: cell-based, Human
# assay-setup: Cpd 0.0016 uM, T4J = 0, R = 0.01 ug/ml
# Description: FACS-based phagocytosis assays were performed to evaluate the phagocytic abilities of macrophages. Toledo Cells (a tumor cell line, as a target) were labelled with CellTrace™ Far Red and plated into 96-well plate at a density of 0.15×10^6 cells/well for 12 hours. The Macrophages were prepared as discussed above and then labelled with CellTrace Violet. […] Then, cells were acquired and data were analyzed.
We begin with a simple list: items and their reported macrophage phagocytosis (untreated = 1.00).
Quick one: just the number, no unit, thanks!

Examples with their reported macrophage phagocytosis (untreated = 1.00) follow.
| compound | measured-on | meas-value |
| --- | --- | --- |
| Nc1ncn([C@@H]2O[C@H](CO)[C@@H](O)[C@H]2O)c(=O)n1 [Azacitidine] | Toledo Cells | 1.63 |
| Nc1cccc2c1CN(C1CCC(=O)NC1=O)C2=O (stereo not shown) [Lenalidomide] | Toledo Cells | 1.46 |
| CC1(C)CCC(CN2CCN(c3ccc(C(=O)NS(=O)(=O)c4ccc(NCC5CCOCC5)c([N+](=O)[O-])c4)c(Oc4cnc5[nH]ccc5c4)c3)CC2)=C(c2ccc(Cl)cc2)C1 [Venetoclax] | Toledo Cells | 1.45 |

Let's switch to this compound now.
### Prompt // returns reported macrophage phagocytosis (untreated = 1.00) for input Cn1c(CCCC(=O)O)nc2cc(N(CCCl)CCCl)ccc21 [Bendamustine]
### Response 1.58

====

# System: CD47
# experiment-notes: FACS analysis of expression level of CD47 on tumor cell surface
# Type: cell-based, Human
# assay-setup: Toledo cells, 12 hours, 0.2 uM
measured-attribute: Mean Fluorescence Intensity (MFI) CD47
Quick one: just the number, no unit, thanks!

Examples with their reported Mean Fluorescence Intensity (MFI) CD47 follow.
| molecule | Mean Fluorescence Intensity (MFI) CD47 |
| --- | --- |
| CC[C@H](Nc1ncnc2[nH]cnc12)c1nc2cccc(F)c2c(=O)n1-c1ccccc1 [Idelalisib] | 8246 |
| CC1(C)CCC(CN2CCN(c3ccc(C(=O)NS(=O)(=O)c4ccc(NCC5CCOCC5)c([N+](=O)[O-])c4)c(Oc4cnc5[nH]ccc5c4)c3)CC2)=C(c2ccc(Cl)cc2)C1 [Venetoclax] | 5206 |
| Nc1ncn([C@@H]2O[C@H](CO)[C@@H](O)[C@H]2O)c(=O)n1 [Azacitidine] | 8460 |
| C[C@H](Nc1ncnc2nc[nH]c12)c1cc2cccc(Cl)c2c(=O)n1-c1ccccc1 [Duvelisib] | 8471 |
| Nc1cccc2c1CN(C1CCC(=O)NC1=O)C2=O (centres unmarked) [Lenalidomide] | 8730 |

### Prompt // returns reported Mean Fluorescence Intensity (MFI) CD47 for input Cn1c(CCCC(=O)O)nc2cc(N(CCCl)CCCl)ccc21 [Bendamustine]
### Response 8687

### Prompt // returns reported Mean Fluorescence Intensity (MFI) CD47 for input C=CC(=O)N1CCC[C@@H](n2nc(-c3ccc(Oc4ccccc4)cc3)c3c(N)ncnc32)C1 [Ibrutinib]
### Response 8415

### Prompt // returns reported Mean Fluorescence Intensity (MFI) CD47 for input COc1c(OCCCN2CCOCC2)ccc2c1N=C(NC(=O)c1cnc(N)nc1)N1CCN=C21 [Copanlisib]
### Response 7844
